Numbers sourced from PubChem BioAssay (EPA / NIEHS).

- Read-out: Keratin 19 (KRT19), KRT19 (gene 3880)
- test_summary: LTEA_HepaRG_KRT19: Life Technologies and Expression Analysis (LTEA) Assay for Keratin 19 (KRT19) using HepaRG (AID 2283512)
- test_settings: mRNA level, 48 h; actives raise or lower the signal
Calls of active or inactive are those of the source. How the source made its calls: active means hit-call score of the fitted dose curve at least 0.9, where 1 is the maximum; inactive means score below 0.9.
property_measured: AC50

[
  {
    "molecule": "CON(C)C(=O)Nc1ccc(Cl)c(Cl)c1",
    "val": "48.5 µM (active)"
  },
  {
    "molecule": "O=C(Nc1ccccc1)Nc1ccnc(Cl)c1",
    "val": "28.1 µM (active)"
  },
  {
    "molecule": "O=C(O)c1nc(Cl)ccc1Cl",
    "val": "inactive"
  },
  {
    "molecule": "CNC(=O)ON=CC(C)(C)SC",
    "val": "inactive"
  },
  {
    "molecule": "CNC(=S)S",
    "val": "inactive"
  }
]

Hey, can you go through the list below and give me AC50 for every item?
1. COC(=O)N(OC)c1ccccc1COc1ccn(-c2ccc(Cl)cc2)n1
2. COC(=O)C(C)Oc1ccc(Oc2ccc(Cl)cc2Cl)cc1 (configuration not stated)

Result ::
1: 23.3 µM (active); 2: 77 µM (active)
